These entries and their values trace back to patent US7855192B2.

# Tested on: SKOV3
# method: cells
# conditionParameters: Homo sapiens, SK-OV-3, read-out: Inhibitory activity against cancer cells IC50
pIC50: −log10 of the molar value.
propertyName: pIC50

Observe how each entry below is paired with its result.
[
  {
    "molecule": "CO[C@H]1C[C@H](C)Cc2cccc(c2)NC(=O)/C(C)=C/CC[C@H](OC)[C@@H](OC(N)=O)/C(C)=C/[C@H](C)[C@H]1O [III-h]",
    "targetUnderTest": "SKOV3",
    "pIC50": 6.50
  },
  {
    "molecule": "CO[C@H]1/C=C\\C=C(/C)C(=O)Nc2cc(Cl)c(O)c(c2O)C[C@@H](C)C[C@H](OC)[C@H](O)[C@@H](C)/C=C(\\C)[C@@H]1OC(N)=O [IV-b]",
    "targetUnderTest": "SKOV3",
    "pIC50": "6.44 to 6.47"
  },
  {
    "molecule": "CO[C@H]1C[C@H](C)Cc2cc(cc(Cl)c2O)NC(=O)/C(C)=C/CC[C@H](OC)[C@@H](OC(N)=O)/C(C)=C/[C@H](C)[C@H]1O [III-a]",
    "targetUnderTest": "SKOV3",
    "pIC50": "6.77 to 6.99"
  }
]

Looking up COC1CC/C=C(\C)C(=O)Nc2cc(F)c(O)c(c2)C[C@@H](C)C[C@H](OC)[C@H](O)[C@@H](C)/C=C(\C)[C@@H]1OC(N)=O (stereo partly shown) [III-d] , I found its pIC50 recorded as 6.63 to 6.64

* * *

# Tested on: MX-1
# method: cells
# conditionParameters: Homo sapiens, MX1, read-out: Inhibitory activity against cancer cells IC50
Provide the recorded pIC50 for the entries that follow.
One number for each entry, as −log10 of the molar value.

Observe how each entry below is paired with its result.
[
  {
    "compound": "CO[C@H]1/C=C\\C=C(/C)C(=O)Nc2cc(Cl)c(O)c(c2O)C[C@@H](C)C[C@H](OC)[C@H](O)[C@@H](C)/C=C(\\C)[C@@H]1OC(N)=O",
    "targetUnderTest": "MX-1",
    "pIC50": 6.36
  },
  {
    "compound": "CO[C@H]1C[C@H](C)Cc2cc(cc(Cl)c2O)NC(=O)/C(C)=C/CC[C@H](OC)[C@@H](OC(N)=O)/C(C)=C/[C@H](C)[C@H]1O",
    "targetUnderTest": "MX-1",
    "pIC50": 7.38
  }
]

Would you kindly look at the next entry?
Looking up COC1CC/C=C(\C)C(=O)Nc2cc(F)c(O)c(c2)C[C@@H](C)C[C@H](OC)[C@H](O)[C@@H](C)/C=C(\C)[C@@H]1OC(N)=O (stereo partly drawn) , I found its pIC50 recorded as 7.18

* * *

# Test system: HCT-116
# method: cells
# conditionParameters: Homo sapiens, HCT-116, read-out: Inhibitory activity against cancer cells IC50
propertyName: IC50 (nM)
Give bare numbers, in nM.

Observe how each entry below is paired with its result.
[
  {
    "compound": "CO[C@H]1/C=C\\C=C(/C)C(=O)Nc2cc(Cl)c(O)c(c2O)C[C@@H](C)C[C@H](OC)[C@H](O)[C@@H](C)/C=C(\\C)[C@@H]1OC(N)=O",
    "IC50 (nM)": 840
  },
  {
    "compound": "CO[C@H]1/C=C\\C=C(/C)C(=O)Nc2ccc(O)c(c2)C[C@@H](C)C[C@H](OC)[C@H](O)[C@@H](C)/C=C(\\C)[C@@H]1OC(N)=O",
    "IC50 (nM)": 177
  }
]

Would you kindly look at the next entry?
Looking up CO[C@H]1C[C@H](C)Cc2cc(ccc2O)NC(=O)/C(C)=C/CC[C@H](OC)[C@@H](OC(N)=O)/C(C)=C/[C@H](C)[C@H]1O , I found its IC50 recorded as 1100
